Recorded values, source PubChem BioAssay AID504681.

Tested on: PBS pH 7.4 stability, LC-MS/MS, 48 h
Experiment summary: Inhibitors of Human alpha-Glucosidase: PBS Stability Profiling
Test settings: at 20 µM; active compounds read high
Attribute measured: percent remaining (%)
State just the number; it will be interpreted in %.

Entry CC(=O)c1ccc(N2CCN(S(=O)(=O)c3ccc4c(c3)CC(=O)N4)CC2)cc1 has what percent remaining?
100
